- SYSTEM: T1, ALKBH3 Y143A (Homo sapiens, UniProt Q96Q83 1-286, Y143A)
- T1 sequence: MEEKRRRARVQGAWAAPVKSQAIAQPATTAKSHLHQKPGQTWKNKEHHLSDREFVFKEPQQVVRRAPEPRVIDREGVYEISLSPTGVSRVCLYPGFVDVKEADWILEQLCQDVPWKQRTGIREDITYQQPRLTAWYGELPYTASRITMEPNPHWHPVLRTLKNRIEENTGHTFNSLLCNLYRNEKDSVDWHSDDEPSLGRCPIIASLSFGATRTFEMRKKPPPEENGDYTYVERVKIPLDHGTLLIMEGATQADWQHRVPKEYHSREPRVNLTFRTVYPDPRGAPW
- MEASUREMENT PROTOCOL: intrinsic Trp fluorescence titration; apoprotein, 2 mM EDTA, no Fe(II)/2OG; Titration: 50 mM HEPES-KOH pH 7.8, 50 mM KCl, 10 mM MgCl2, 2 mM EDTA, 25 °C, 1 µM apoprotein; stopped-flow: with Fe(II) and 2OG, 0.5-4.0 µM DNA (buffer not in material)
- CONDITIONS: protein: recombinant; tags: N-terminal His-tag (pET28a); single strand
EXPERIMENTAL ENDPOINT: pKd
Recall that pKd is obtained by taking minus log10 of the concentration measured in molar.

Reported pKd ( ACAGGATCCGGCATA (ssDNA, N3-methylcytosine at position 9) [m3C] ) = 5.20
